# inhibition annotations
- tested-on: Tyrosine-protein phosphatase non-receptor type 1 (Homo sapiens) (UniProt P18031)
- Sequence (P18031 whole entry): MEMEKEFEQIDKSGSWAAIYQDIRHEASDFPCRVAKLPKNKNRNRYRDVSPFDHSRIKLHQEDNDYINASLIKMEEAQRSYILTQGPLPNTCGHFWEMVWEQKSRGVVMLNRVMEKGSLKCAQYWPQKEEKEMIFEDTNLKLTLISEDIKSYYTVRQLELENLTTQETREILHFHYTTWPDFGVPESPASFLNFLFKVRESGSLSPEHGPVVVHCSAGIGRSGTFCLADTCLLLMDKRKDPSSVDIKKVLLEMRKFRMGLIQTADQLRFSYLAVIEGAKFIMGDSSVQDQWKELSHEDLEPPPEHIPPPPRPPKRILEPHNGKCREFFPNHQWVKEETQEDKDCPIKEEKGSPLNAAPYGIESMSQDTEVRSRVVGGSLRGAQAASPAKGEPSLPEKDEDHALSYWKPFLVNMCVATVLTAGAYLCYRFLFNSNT
- experimental-protocol: Inhibition of PTP1B (unknown origin) using p-nitrophenyl phosphate as substrate assessed as p-nitrophenolate ions production at 100 uM after 10 min
endpoint-name: inhibition (%)

• CCCCCCCCCCCCCCCCCCCCCCO[C@H]1OC[C@H](O[C@H]2OC[C@H](O[C@H]3OC[C@H](O)[C@H](O)[C@H]3O)[C@H](OC(C)=O)[C@H]2O)[C@H](O)[C@H]1O = 5.9
• CCCCC/C=C/CC/C=C/[C@@H](O)[C@H](CO)NC(=O)CCCCCCCCCCCCCCC = 4.1
• CCCCCCCCCCCCCCCCCCOCC(O)CO (stereo not drawn) = 4.1
• CCCCCCCCCCCCCCCCCCC(=O)OCCCCCCCCCCCCCCCCC = 11.1
• C=C(CCCC(C)C)[C@H]1CCC2C3CC=C4C[C@@H](O)CC[C@]4(C)C3CC[C@@]21C (stereo partly drawn) = 7.6
• CCCCCCCCCCCCCCCCO[C@H]1OC[C@H](O[C@H]2OC[C@H](O[C@H]3OC[C@H](O)[C@H](O)[C@H]3O)[C@H](O)[C@H]2O)[C@H](O)[C@H]1O = 0.2
• CCCCCCCCCCC/C=C/C[C@@H](O)[C@H](CO)NC(=O)[C@H](O)CCCCCCCCCCCCCCCCCC = 1.3
• CCCCCCCCCCCCCCCCCOC(=O)CCCCCCCCCCCCCCCC = 1.3
